Please provide measured growth AUC for the entries that follow.
Test system: Akkermansia muciniphila
measurement.notes: growth AUC relative to DMSO control (median of replicates) (fraction); higher = more growth (less inhibition), active = hit call of the paper
experimental.parameters: 20 µM; 24 h
Just the number, please.

Reported growth AUC of CCOP(=S)(OCC)SCS(=O)CC (configuration not stated) : 1.03

Reported growth AUC for CCSC(=O)N1CCCCCC1 was 0.873

Recorded growth AUC (molecule COc1cccc(C(=O)NN(C(=O)c2cc(C)cc(C)c2)C(C)(C)C)c1C ): 1.14

Lookup result for CNC(=O)/C(=N/OC)c1ccccc1Oc1ccccc1 ; measured growth AUC: 0.883

The value of growth AUC measured for the molecule CCOP(=O)(OCC)OP(=O)(OCC)OCC turned out to be 1.07

The molecule identified as CCOP(=S)(Oc1ccc([N+](=O)[O-])cc1)c1ccccc1 (configuration not stated) registered its growth AUC at 1.06

CC(C)C1(C)N=C(c2ncccc2C(=O)O)NC1=O (configuration not stated) yielded growth AUC of 0.976

// recorded growth AUC for NC(=S)c1c(Cl)cccc1Cl : 0.917

// sample CC1(C)[C@H](C(=O)O[C@H](C#N)c2cccc(Oc3ccccc3)c2)[C@@H]1C=C(Br)Br , its growth AUC was 0.878

growth AUC reading for O=C(NC(=O)c1c(F)cccc1F)Nc1cc(Cl)c(Oc2ncc(C(F)(F)F)cc2Cl)c(Cl)c1 : 1.02

# molecule CCOP(=S)(NC(C)CC)Oc1cc(C)ccc1[N+](=O)[O-] (configuration not stated) ; its growth AUC = 0.974

Field growth AUC (entry O=C1C=C(N(Cc2ccc(Cl)nc2)CC(F)F)CO1 ) reads 0.98

Summary for this molecule, Cc1ccccc1[N+](=O)[O-] : growth AUC is 1

Summary for this molecule, CCCSP(=S)(OCC)Oc1ccc(SC)cc1 (configuration not stated) : growth AUC is 0.897

The value of growth AUC measured for the molecule O=S(=O)(c1ccc(Cl)cc1)c1cc(Cl)c(Cl)cc1Cl turned out to be 1.07

For Nc1ccc(Cl)cc1 the molecule record lists growth AUC as 1.01

// CP(=O)(O)CC(=O)O : growth AUC value = 1.01

O=S1(=O)OCC2C(CO1)C1(Cl)C(Cl)=C(Cl)C2(Cl)C1(Cl)Cl (configuration not stated) has a reported growth AUC of 1.39

Kindly note the recorded growth AUC for O=C(O)C1(O)c2ccccc2-c2ccc(Cl)cc21 (configuration not stated) , which is 0.865

Looking up CN1CSC(=S)N(C)C1 , I see its growth AUC listed as 1.02

molecule COP(=O)(OC)C(O)C(Cl)(Cl)Cl (configuration not stated) , growth AUC observed: 0.955

Just so you know, measured growth AUC for O=C(O)C(F)(F)C(F)(F)C(F)(F)C(F)(F)C(F)(F)C(F)(F)C(F)(F)C(F)(F)F came out at 1.01

# molecule CCOC(=O)C(O)(c1ccc(Cl)cc1)c1ccc(Cl)cc1 ; its growth AUC = 0.996

Documented growth AUC of Oc1ccc(Cl)cc1Cl : 1.15

growth AUC recorded for this molecule, C[N+](C)(C)CCCl.[Cl-] , is 1.06

Lookup result for NCP(=O)(O)O ; measured growth AUC: 1.04

The recorded growth AUC for Nc1cccc(Cl)c1Cl is 0.928

Reference source for all entries: the supplement of paper PMC12669032
